- Tested on: Yap1 mRNA
- method description: Dose-dependent inhibition of human Yap1 in SNU-449 cells (Example 9, RTS36584)
- Assay type: cell-based
- measurement conditions: 31.3 nM, free uptake, approximately 48 hours
Strand notation (5' to 3'): a small letter for the sugar, then the base; units joined by * are phosphorothioate-linked, units joined directly phosphodiester-linked; [ ] holds rarer units or linkages, { } end groups; capitals alone tell only the bases. e = 2'-O-(2-methoxyethyl) (MOE); k = constrained ethyl (cEt); [5mC] = 5-methylcytosine; d = 2'-deoxy (DNA)
# % UTC (Yap1 mRNA) per entry
Entry rule: numbers only, all in % UTC.

>>> measurement("1198286 (kA*kA*kT*dT*dG*dT*d[5mC]*dT*d[5mC]*dA*dT*dG*k[5mC]*e[5mC]*kT*eT; antisense) [compound 1198286]")
64

Prompt: What does the record list as % UTC (Yap1 mRNA) for 1198832 (kG*k[5mC]*dA*d[5mC]*dT*dT*dT*dT*dA*d[5mC]*dA*kT*eT*kA*eG*kG; antisense) [compound 1198832] ?
Completion: 77

Prompt: Which % UTC (Yap1 mRNA) value belongs to 1198905 (kA*kT*dA*dT*dT*dA*dG*dA*dG*dT*dA*kT*dG*kT*dG*kG; antisense) [compound 1198905] ?
Completion: 75

---

- method description: Tolerability in Balb/c mice, plasma chemistry markers (Example 11)
- Assay type: in vivo
- measurement conditions: 50 mg/kg subcutaneously twice a week for four weeks
Strand notation (5' to 3'): a small letter for the sugar, then the base; units joined by * are phosphorothioate-linked, units joined directly phosphodiester-linked; [ ] holds rarer units or linkages, { } end groups; capitals alone tell only the bases. k = constrained ethyl (cEt); [5mC] = 5-methylcytosine; d = 2'-deoxy (DNA)
AST less than 1000 U/L is 1; AST greater than or equal to 1000 U/L is -1.

Example entries and their recorded answers appear below.
>>> answer_label("716502 (antisense k[5mC]*kA*k[5mC]*dA*dG*dT*dG*dA*dT*dT*dG*d[5mC]*dA*kT*kT*kT) [compound 716502]")
-1
>>> answer_label("716454 (antisense k[5mC]*kG*kA*dG*dA*dT*dT*dT*dA*dA*dA*dT*dA*kA*kG*kG) [compound 716454]")
1
>>> answer_label("716455 (antisense kG*kT*kT*dA*dT*dG*dT*dT*dT*dG*dG*dG*dT*kG*kT*kG) [compound 716455]")
-1
>>> answer_label("716480 (antisense kG*k[5mC]*kA*dA*dG*dT*d[5mC]*dT*dT*dG*dT*dA*dA*kG*kT*kA) [compound 716480]")
1

Pending substance:
Prompt: Regarding 716481 (antisense kT*k[5mC]*kA*dG*d[5mC]*dA*dT*dA*dG*dA*dA*dG*dT*kA*kG*kG) [compound 716481] , kindly confirm whether its AST is beneath 1000 U/L.
Completion: -1

---

In this section, each of the substances is paired with its reported YAP1 (% UTC).
- Tested on: Yap1 mRNA
- method description: Antisense inhibition of human Yap1 in A-431 cells by cEt gapmers, single dose (Example 1, RTS4814)
- Assay type: cell-based
- measurement conditions: A-431 cells, 5,000 cells per well, free uptake, 2,000 nM modified oligonucleotide, approx. 48 hours, RTS4814, normalized to RIBOGREEN; Table 3
- Experimental: Modified oligonucleotides were designed to target a Yap1 nucleic acid and were tested for their effect on Yap1 mRNA level in vitro. The modified oligonucleotides were tested in a series of experiments that had similar culture conditions. […] After a treatment period of approximately 48 hours, RNA was isolated from the cells and Yap1 mRNA levels were measured by quantitative real-time RTPCR. […] Yap1 mRNA levels were normalized to total RNA content, as measured by RIBOGREEN®. […]
Strand notation (5' to 3'): a small letter for the sugar, then the base; units joined by * are phosphorothioate-linked, units joined directly phosphodiester-linked; [ ] holds rarer units or linkages, { } end groups; capitals alone tell only the bases. k = constrained ethyl (cEt); [5mC] = 5-methylcytosine; d = 2'-deoxy (DNA)
Note: unit % UTC is implicit; provide only the numeric part.

Prompt: Would you kindly share the measured YAP1 (% UTC) for 715513 (kG*k[5mC]*kG*dG*dA*dG*dG*d[5mC]*dG*d[5mC]*dG*d[5mC]*dG*k[5mC]*kA*kT; antisense) [Compound 715513] ?
Completion: 125

Prompt: Name the reported YAP1 (% UTC) value associated with the substance 715453 (antisense kA*kG*kG*dT*dG*d[5mC]*d[5mC]*dA*d[5mC]*dT*dG*dT*dT*kA*kA*kG) [Compound 715453]
Completion: 59

Prompt: Recorded YAP1 (% UTC) for 715477 (antisense kA*kG*kA*d[5mC]*dA*d[5mC]*dA*dT*dA*d[5mC]*dT*d[5mC]*dT*kA*kG*kT) [Compound 715477] , please?
Completion: 61

---

- Tested on: Yap1 mRNA
- method description: Antisense inhibition of human Yap1 in A-431 cells by cEt gapmers, single dose (Example 2, RTS4814)
- Type: cell-based
- measurement conditions: Table 5; A-431 cells, 5,000 cells per well, free uptake, 2,000 nM modified oligonucleotide, approx. 48 hours; RTS4814; normalized to RIBOGREEN; Yap1 mRNA relative to untreated control cells
Strand notation (5' to 3'): a small letter for the sugar, then the base; units joined by * are phosphorothioate-linked, units joined directly phosphodiester-linked; [ ] holds rarer units or linkages, { } end groups; capitals alone tell only the bases. k = constrained ethyl (cEt); [5mC] = 5-methylcytosine; d = 2'-deoxy (DNA)
This section presents substances with their documented YAP1 (% UTC) values.
Field format: number, assumed % UTC, no unit text.

>>> measurement("716485 (kA*k[5mC]*kT*dA*d[5mC]*d[5mC]*dA*dA*dT*dA*dT*dA*d[5mC]*kA*kT*kT; antisense) [Compound 716485]")
84
>>> measurement("716386 (kA*kT*kT*dT*d[5mC]*dT*d[5mC]*d[5mC]*dA*dT*d[5mC]*d[5mC]*dT*kG*kA*kG; antisense) [Compound 716386]")
60
>>> measurement("716362 (kA*kG*kG*d[5mC]*dG*dG*d[5mC]*dT*dG*d[5mC]*d[5mC]*d[5mC]*dT*kT*kG*kG; antisense) [Compound 716362]")
94

Prompt: Please give the measured YAP1 (% UTC) for this substance: 716503 (kT*kT*kA*dT*dT*dA*dT*dG*dA*dG*dT*dG*dA*kT*k[5mC]*kA; antisense) [Compound 716503]
Completion: 33

Prompt: Returns the measured YAP1 (% UTC) for the input substance. Input: 716551 (k[5mC]*kG*k[5mC]*dT*dA*dG*dA*dA*dA*dA*dG*dT*dG*kT*kT*kA; antisense) [Compound 716551]
Completion: 76

Prompt: Given the entry 716524 (antisense kA*k[5mC]*kT*dG*dA*dG*dG*dT*dA*dT*dA*dA*d[5mC]*kT*kG*kG) [Compound 716524] , report its measured YAP1 (% UTC).
Completion: 35

---

- Tested on: Yap1 mRNA
- method description: Dose-dependent inhibition of human Yap1 in A-431 cells (Example 7, 10,000 cells per well, RTS36584)
- Format: cell-based
- measurement conditions: Table 61, 62.5 nM, free uptake, A-431 cells 10,000 cells per well, 48 hours
Strand notation (5' to 3'): a small letter for the sugar, then the base; units joined by * are phosphorothioate-linked, units joined directly phosphodiester-linked; [ ] holds rarer units or linkages, { } end groups; capitals alone tell only the bases. k = constrained ethyl (cEt); [5mC] = 5-methylcytosine; d = 2'-deoxy (DNA)
Listing: Yap1 mRNA, % UTC of selected substances
The reply should contain only the number, in % UTC.

>>> measurement("958474 (kG*kT*kG*dT*d[5mC]*dT*d[5mC]*d[5mC]*dT*dT*dA*dG*dA*kT*k[5mC]*k[5mC]; antisense) [compound 958474]")
37

Prompt: Give Yap1 mRNA, % UTC (Yap1 mRNA) of the following substance: 958614 (kG*kT*k[5mC]*dT*dT*dG*dT*dT*d[5mC]*dT*dT*dA*dT*kG*kG*kT; antisense) [compound 958614]
Completion: 49

Prompt: # get_value(readout= Yap1 mRNA, % UTC, system= Yap1 mRNA) for 958589 (kG*kT*kA*dA*dA*dG*dG*dA*dA*dG*dA*dT*d[5mC]*kT*k[5mC]*k[5mC]; antisense) [compound 958589]
Completion: 50

Prompt: Give Yap1 mRNA Yap1 mRNA, % UTC for 958724 (kT*k[5mC]*kA*dG*dT*dT*dA*dT*d[5mC]*d[5mC]*dT*dA*dT*k[5mC]*k[5mC]*k[5mC]; antisense) [compound 958724]
Completion: 55
